Cited source for all entries: patent US20170144969A1

List of HC50 values.
# Tested on: human Red Blood Cells
# assay.explanation: Haemolytic activity
# condition: Table 6; human RBCs, 1 h at 37° C.
Your answer is read as µM, so omit the unit and give the number.

# example entries with known answers
Tell me measured HC50 for "CCCCCCCCCCCC(=O)N(CCCNC(=O)[C@H](C)N)CCCNC(=O)[C@H](C)N.O=C(O)C(F)(F)F.O=C(O)C(F)(F)F" please.
562

Tell me measured HC50 for "CCCCCCCCCCCCCCCC(=O)N(CCCNC(=O)[C@@H](N)CC(C)C)CCCNC(=O)[C@@H](N)CC(C)C.O=C(O)C(F)(F)F.O=C(O)C(F)(F)F" please.
95

Tell me measured HC50 for "CCCCCCCCCCCCCC(=O)N(CCCNC(=O)[C@@H](N)CC(C)C)CCCNC(=O)[C@@H](N)CC(C)C.O=C(O)C(F)(F)F.O=C(O)C(F)(F)F" please.
118

Tell me measured HC50 for "CCCCCCCCCCCCCCCC(=O)N(CCCNC(=O)[C@@H](N)C(C)C)CCCNC(=O)[C@@H](N)C(C)C.O=C(O)C(F)(F)F.O=C(O)C(F)(F)F" please.
86

Tell me measured HC50 for "CCCCCCCCCCCC(=O)N(CCCNC(=O)[C@@H]1CCCN1)CCCNC(=O)[C@@H]1CCCN1.O=C(O)C(F)(F)F.O=C(O)C(F)(F)F" please.
918

Turning to the following compound.
Tell me measured HC50 for "CCCCCCCCCCCC(=O)N(CCCNC(=O)[C@@H](N)CC(C)C)CCCNC(=O)[C@@H](N)CC(C)C.O=C(O)C(F)(F)F.O=C(O)C(F)(F)F" please.
305

* * *

# Test system: vancomycin resistant Enterococcus faecium (VRE) (ATCC 51559)
# assay.explanation: Minimum Inhibitory Concentration, micro-dilution broth
# Assay type: cell-based
# condition: 24 h, 37° C.
List of MIC values.
Your answer is read as µM, so omit the unit and give the number.

Tell me measured MIC for CCCCCCCCCCCCCCCC(=O)N(CCCNC(=O)[C@H](N)CCCCN)CCCNC(=O)[C@H](N)CCCCN.O=C(O)C(F)(F)F.O=C(O)C(F)(F)F [Compound 17] please.
2.2

Tell me measured MIC for CCCCCCCCCCCCCCCCCC(=O)N(CCCNC(=O)[C@@H](N)CCCCN)CCCNC(=O)[C@@H](N)CCCCN.O=C(O)C(F)(F)F.O=C(O)C(F)(F)F [Compound 13] please.
2.2

Tell me measured MIC for CCCCCCCCCCCCCCCC(=O)N(CCCNC(=O)[C@H](C)N)CCCNC(=O)[C@H](C)N.O=C(O)C(F)(F)F.O=C(O)C(F)(F)F [Compound 47] please.
3

Next:
Tell me measured MIC for CCCCCCCCCCCCCCCC(=O)N(CCCNC(=O)[C@@H](N)CCCN)CCCNC(=O)[C@@H](N)CCCN.O=C(O)C(F)(F)F.O=C(O)C(F)(F)F [Compound 15] please.
3

Tell me measured MIC for CCCCCCCCCCCC(=O)N(CCCNC(=O)[C@H](C)N)CCCNC(=O)[C@H](C)N.O=C(O)C(F)(F)F.O=C(O)C(F)(F)F [Compound 45] please.
82

* * *

List of HC50 values.
# System: human Red Blood Cells
# assay.explanation: Haemolytic activity
# condition: Table 3; human RBCs, 1 h at 37° C.
Field format: numeric only.

Tell me measured HC50 for "CCCCCCCCCC(=O)N(CCCNC(=O)[C@@H](N)Cc1ccccc1)CCCNC(=O)[C@@H](N)Cc1ccccc1.O=C(O)C(F)(F)F.O=C(O)C(F)(F)F" please.
232

Tell me measured HC50 for "CCCCCCCCCCCCCC(=O)N(CCCNC(=O)[C@@H](N)Cc1ccccc1)CCCNC(=O)[C@@H](N)Cc1ccccc1.O=C(O)C(F)(F)F.O=C(O)C(F)(F)F" please.
144

Tell me measured HC50 for "CCCCCCCCCCCCCCCCCC(=O)N(CCCNC(=O)[C@@H](N)Cc1ccccc1)CCCNC(=O)[C@@H](N)Cc1ccccc1.O=C(O)C(F)(F)F.O=C(O)C(F)(F)F" please.
71

Next:
Tell me measured HC50 for "CCCCCCCCCCCC(=O)N(CCCNC(=O)[C@@H](N)Cc1ccccc1)CCCNC(=O)[C@@H](N)Cc1ccccc1.O=C(O)C(F)(F)F.O=C(O)C(F)(F)F" please.
205

Tell me measured HC50 for "CCCCCCCCCCCCCCCC(=O)N(CCCNC(=O)[C@@H](N)Cc1ccccc1)CCCNC(=O)[C@@H](N)Cc1ccccc1.O=C(O)C(F)(F)F.O=C(O)C(F)(F)F" please.
83

Tell me measured HC50 for "CCCCCCCCCCCCCCCC(=O)N(CCCNC(=O)[C@@H](N)CCCCN)CCCNC(=O)[C@@H](N)CCCCN.O=C(O)C(F)(F)F.O=C(O)C(F)(F)F" please.
264

Tell me measured HC50 for "CCCCCCCCCCCCCC(=O)N(CCCNC(=O)[C@@H](N)CCCCN)CCCNC(=O)[C@@H](N)CCCCN.O=C(O)C(F)(F)F.O=C(O)C(F)(F)F" please.
588

Tell me measured HC50 for "CCCCCCCCCCCCCCCCCC(=O)N(CCCNC(=O)[C@@H](N)CCCCN)CCCNC(=O)[C@@H](N)CCCCN.O=C(O)C(F)(F)F.O=C(O)C(F)(F)F" please.
108

* * *

# Tested on: Enterococcus faecium (ATCC 19634)
# assay.explanation: Minimum Inhibitory Concentration, micro-dilution broth
# Type: cell-based
# condition: 24 h, 37° C.; read-out: Minimum Inhibitory Concentration E. faceium
Param label: returns rule met when MIC < 5 µM, returns rule not met otherwise, including exact equality.

Field: below-cutoff. Rule: recorded MIC strictly less than 5 µM. Subject: "CCCCCCCCCCCCCCCC(=O)N(CCCNC(=O)[C@@H](N)C(C)C)CCCNC(=O)[C@@H](N)C(C)C.O=C(O)C(F)(F)F.O=C(O)C(F)(F)F"
rule met

Next:
Field: below-cutoff. Rule: recorded MIC strictly less than 5 µM. Subject: "CCCCCCCCCC(=O)N(CCCNC(=O)[C@@H](N)CCCCN)CCCNC(=O)[C@@H](N)CCCCN.O=C(O)C(F)(F)F.O=C(O)C(F)(F)F"
rule not met

Field: below-cutoff. Rule: recorded MIC strictly less than 5 µM. Subject: "CCCCCCCCCCCCCC(=O)N(CCCNC(=O)[C@@H](N)Cc1ccccc1)CCCNC(=O)[C@@H](N)Cc1ccccc1.O=C(O)C(F)(F)F.O=C(O)C(F)(F)F"
rule not met

Field: below-cutoff. Rule: recorded MIC strictly less than 5 µM. Subject: "CCCCCCCCCCCCCC(=O)N(CCCNC(=O)[C@@H](N)[C@@H](C)CC)CCCNC(=O)[C@@H](N)[C@@H](C)CC.O=C(O)C(F)(F)F.O=C(O)C(F)(F)F"
rule met

* * *

# Test system: vancomycin resistant Enterococcus faecium (VRE) (ATCC 51559)
# assay.explanation: Minimum Inhibitory Concentration, micro-dilution broth
# Format: cell-based
# condition: 24 h, 37° C.
observable: MIC (µM)
Your answer is read as µM, so omit the unit and give the number.

Tell me measured MIC for "CCCCCCCCCCCCCCCC(=O)N(CCCNC(=O)[C@@H](N)Cc1c[nH]c2ccccc12)CCCNC(=O)[C@@H](N)Cc1c[nH]c2ccccc12.O=C(O)C(F)(F)F.O=C(O)C(F)(F)F" please.
7

Tell me measured MIC for "CCCCCCCCCCCCCCCC(=O)N(CCCNC(=O)[C@@H](N)Cc1ccccc1)CCCNC(=O)[C@@H](N)Cc1ccccc1.O=C(O)C(F)(F)F.O=C(O)C(F)(F)F" please.
3

Tell me measured MIC for "CCCCCCCCCCCCCC(=O)N(CCCNC(=O)[C@@H](N)CCCN)CCCNC(=O)[C@@H](N)CCCN.O=C(O)C(F)(F)F.O=C(O)C(F)(F)F" please.
5.3

Tell me measured MIC for "CCCCCCCCCCCCCC(=O)N(CCCNC(=O)[C@@H](N)CCCCN)CCCNC(=O)[C@@H](N)CCCCN.O=C(O)C(F)(F)F.O=C(O)C(F)(F)F" please.
1.5

Turning to the following compound.
Tell me measured MIC for "CCCCCCCCCCCCCCCC(=O)N(CCCNC(=O)[C@@H](N)CCCCN)CCCNC(=O)[C@@H](N)CCCCN.O=C(O)C(F)(F)F.O=C(O)C(F)(F)F" please.
1

* * *

# System: vancomycin resistant Enterococcus faecium (VRE) (ATCC 51559)
# assay.explanation: Minimum Inhibitory Concentration, micro-dilution broth
# Type: cell-based
# condition: 24 h, 37° C.
Classification by MIC follows these ranges: low: < 3 µM; middle: ≥ 3 µM and < 20 µM; high: ≥ 20 µM

Could you place CCCCCCCCCCCCCC(=O)N(CCCNC(=O)[C@@H](N)[C@@H](C)CC)CCCNC(=O)[C@@H](N)[C@@H](C)CC.O=C(O)C(F)(F)F.O=C(O)C(F)(F)F [Compound 52] in its proper category? Many thanks.
low

Next:
Could you place CCCCCCCCCCCCCC(=O)N(CCCNC(=O)[C@@H](N)Cc1c[nH]c2ccccc12)CCCNC(=O)[C@@H](N)Cc1c[nH]c2ccccc12.O=C(O)C(F)(F)F.O=C(O)C(F)(F)F [Compound 7] in its proper category? Many thanks.
low

Could you place CCCCCCCCCCCC(=O)N(CCCNC(=O)[C@@H](N)CC(C)C)CCCNC(=O)[C@@H](N)CC(C)C.O=C(O)C(F)(F)F.O=C(O)C(F)(F)F [Compound 54] in its proper category? Many thanks.
middle

Could you place CCCCCCCCCCCC(=O)N(CCCNC(=O)[C@@H](N)[C@@H](C)CC)CCCNC(=O)[C@@H](N)[C@@H](C)CC.O=C(O)C(F)(F)F.O=C(O)C(F)(F)F [Compound 51] in its proper category? Many thanks.
middle
